# SYSTEM: full-length beta-Catenin (Uniprot ID P35222) (Homo sapiens, UniProt P35222)
# Construct: 10 nM full-length beta-Catenin (Uniprot ID P35222)
# Sequence (P35222 whole entry): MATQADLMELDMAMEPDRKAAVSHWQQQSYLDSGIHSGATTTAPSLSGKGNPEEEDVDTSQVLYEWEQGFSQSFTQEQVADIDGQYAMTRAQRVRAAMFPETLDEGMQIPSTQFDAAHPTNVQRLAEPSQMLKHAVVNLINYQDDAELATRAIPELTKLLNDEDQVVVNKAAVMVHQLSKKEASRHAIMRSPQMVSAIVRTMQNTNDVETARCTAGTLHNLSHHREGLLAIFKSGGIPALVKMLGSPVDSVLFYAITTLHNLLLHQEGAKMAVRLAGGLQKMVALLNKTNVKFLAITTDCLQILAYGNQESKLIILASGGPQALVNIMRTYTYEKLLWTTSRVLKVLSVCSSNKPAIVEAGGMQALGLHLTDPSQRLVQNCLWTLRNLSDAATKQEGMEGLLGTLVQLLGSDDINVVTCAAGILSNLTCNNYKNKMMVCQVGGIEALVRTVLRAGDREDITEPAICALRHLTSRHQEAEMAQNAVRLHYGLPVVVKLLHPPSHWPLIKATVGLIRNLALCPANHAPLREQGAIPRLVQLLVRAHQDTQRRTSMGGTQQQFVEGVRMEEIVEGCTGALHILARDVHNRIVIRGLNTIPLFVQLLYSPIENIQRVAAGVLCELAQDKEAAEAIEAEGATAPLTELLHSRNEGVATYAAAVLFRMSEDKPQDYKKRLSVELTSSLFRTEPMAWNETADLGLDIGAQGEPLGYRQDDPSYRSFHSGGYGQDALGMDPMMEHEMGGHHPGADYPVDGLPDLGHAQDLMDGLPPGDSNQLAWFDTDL
# METHOD: Fluorescence polarization IC50 (beta-catenin / 5FAM-TCF4 10-53 competition)
# Assay type: binding
# PARTICULARS: fluorescence polarization; read-out: beta-Catenin FP IC50
Rule: IC50 below 0.06 µM gives met, anything at or above gives not met.

Answered examples (4):
MOLECULE	SYSTEM	CLASSIFICATION
CC(=O)N1CCC[C@]12CC=CCCCC1(CCCC=CCCCOC(=O)N3CC[C@@](C(=O)N[C@@H](Cc4ccsc4)C(=O)N[C@@H](Cc4csc5ccccc45)C(=O)N[C@@H](CC(C)C)C(N)=O)(C3)NC(=O)[C@H](CC(C)C)NC(=O)[C@H](Cc3ccccc3)NC(=O)[C@H](C)NC(=O)[C@H](CCCCNC(C)C)NC(=O)[C@H](CN(CC(=O)O)CC(F)(F)F)NC(=O)[C@H](CC(=O)O)NC1=O)NC(=O)[C@H](CC(C)(C)C)NC(=O)[C@H](CC(=O)O)NC2=O (some centres unmarked)	full-length beta-Catenin (Uniprot ID P35222) (Homo sapiens, UniProt P35222)	met
CC(=O)N1CCC[C@]12CC=CCCCC1(CCCC=CCCCCCC[C@@](C)(C(=O)N[C@@H](Cc3ccccc3)C(=O)N[C@@H](Cc3csc4ccccc34)C(=O)N[C@@H](CCC(N)=O)C(N)=O)NC(=O)[C@H](CC(N)=O)NC(=O)[C@H](Cc3ccc(F)cc3)NC(=O)[C@H](C)NC(=O)[C@H](C)NC(=O)[C@H](CCC(=O)O)NC(=O)[C@H](CC(=O)O)NC1=O)NC(=O)[C@H](C)NC(=O)[C@H](CC(=O)O)NC2=O (some centres unmarked)	full-length beta-Catenin (Uniprot ID P35222) (Homo sapiens, UniProt P35222)	not met
CC[C@H](C)[C@@H]1NC(=O)[C@H](CC(=O)O)NC(=O)[C@]2(CC=CCCCC3(CCCC=CCCCCCC[C@@](C)(C(=O)N[C@@H](Cc4ccccc4OC)C(=O)N[C@@H](Cc4csc5ccccc45)C(=O)N[C@@H](CCC(N)=O)C(N)=O)NC(=O)[C@H](CCC(N)=O)NC(=O)[C@H](Cc4ccccc4)NC(=O)[C@H](C)NC(=O)[C@H](C)NC(=O)[C@H](CCC(=O)O)NC(=O)[C@H](CC(=O)O)NC3=O)NC1=O)CCCN2C(C)=O (some centres unmarked) [I-528]	full-length beta-Catenin (Uniprot ID P35222) (Homo sapiens, UniProt P35222)	not met
CCCC[C@@H]1NC(=O)[C@H](Cc2ccccc2)NC(=O)[C@H](C)NC(=O)C(C)(C)NC(=O)[C@H](Cc2cccc(C(=O)O)c2)NC(=O)[C@H](CC(=O)O)NC(=O)C2(CCCC=CCCCOC(=O)N3CC[C@@](C(=O)N[C@@H](Cc4ccsc4)C(=O)N[C@@H](Cc4csc5ccccc45)C(=O)N[C@@H](CCC(=O)NCC)C(N)=O)(C3)NC1=O)CCCC=CC[C@]1(CCCN1C(C)=O)C(=O)N[C@@H](CC(=O)O)C(=O)N[C@@H](CC(C)(C)C)C(=O)N2 (some centres unmarked)	full-length beta-Catenin (Uniprot ID P35222) (Homo sapiens, UniProt P35222)	met

Now look at this entry.
Query block: Strictly below 0.06 µM: is that where IC50 of CC(=O)N1CCC[C@]12CC=CCCCC1(CCCC=CCCCOC(=O)N3CC[C@@](C(=O)N[C@@H](Cc4ccccc4Cl)C(=O)N[C@@H](Cc4csc5ccccc45)C(=O)N[C@@H](CCC(N)=O)C(N)=O)(C3)NC(=O)[C@H]([C@@H](C)O)NC(=O)[C@H](Cc3ccccc3)NC(=O)[C@H](C)NC(=O)CNC(=O)[C@H](CN(CC(=O)O)CC(F)(F)F)NC(=O)[C@H](CC(=O)O)NC1=O)NC(=O)[C@H](CC(C)(C)C)NC(=O)[C@H](CC(=O)O)NC2=O (some centres unmarked) [I-1691] sits?
Result block: met
